# Test system: Enterococcus faecalis
# testMethodNotes: Antibacterial activity against Enterococcus faecalis ATCC 29212
# Format: functional
Please respond with reported MIC for every item in the list.
API: value field is a number in µg/mL; no unit string.

// query State its MIC on Enterococcus faecalis: CC[C@H]1OC(=O)C[C@@H](O)[C@H](C)[C@@H](O[C@@H]2O[C@H](C)[C@@H](O)[C@@H](N(C)C)[C@H]2O)[C@@H](CC=O)C[C@@H](C)C(=O)/C=C/C(C)=C/[C@@H]1CO[C@@H]1O[C@H](C)[C@@H](O)[C@@H](OC)[C@H]1OC
// result 1

// query Tell me reported MIC for CC[C@H]1OC(=O)C[C@@H](O)[C@H](C)[C@@H](OC2OC(C)C(O)C(N(C)C)C2O)[C@@H](C/C=C/C(C)=O)C[C@@H](C)C(=O)/C=C/C(C)=C/[C@@H]1COC1OC(C)C(O)C(OC)C1OC (some centres undefined) , tested with Enterococcus faecalis.
// result 1

// query Tell me reported MIC for CCOC(=O)/C=C/C[C@H]1C[C@@H](C)C(=O)/C=C/C(C)=C/[C@H](COC2OC(C)C(O)C(OC)C2OC)[C@@H](CC)OC(=O)C[C@@H](NN(C(=O)OCC)C(=O)OCC)[C@H](C)[C@H]1OC1OC(C)C(O)C(N(C)C)C1O (some centres undefined) , tested with Enterococcus faecalis.
// result 64
